TESTED_ON: GST tagged LXRbeta LBD (ligand binding domain) (Homo sapiens, UniProt P55055)
Sequence (P55055 222-460 limits assumed): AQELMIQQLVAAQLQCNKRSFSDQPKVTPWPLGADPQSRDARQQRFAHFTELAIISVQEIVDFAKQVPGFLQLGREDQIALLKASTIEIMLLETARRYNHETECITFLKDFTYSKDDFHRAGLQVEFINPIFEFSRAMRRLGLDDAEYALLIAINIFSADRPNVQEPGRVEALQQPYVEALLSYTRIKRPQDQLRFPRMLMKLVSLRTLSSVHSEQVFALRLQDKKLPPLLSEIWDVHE
EXPERIMENT_DESCRIPTION: LanthaScreen TR-FRET Liver X Receptor Coactivator Assay, LXR beta-LBD
ASSAY_CONDITIONS: Inflection Point (potency), co-activator recruitment, relative to reference T0901317; read-out: LXR beta IP
MEASURED_QUANTITY: EC50 (nM)
Give a bare numeral; the unit nM is implied.

Below, 3 compounds whose answers are already recorded.
COMPOUND | READOUT_VALUE
COc1cccc(C2(C(=O)N3CCC(C4CCN(c5ccc(C(=O)N(C)C)c(Cl)c5)CC4)CC3)CCC2)c1 | 171
O=C(c1ccc(N2CCC(C3CCN(C(=O)[C@](O)(c4ccccc4)C(F)(F)F)CC3)CC2)cc1Cl)N1CC(n2cccn2)C1 | 297
CN(C)C(=O)c1ccc(N2CCC(C3CCN(C(=O)[C@@](O)(c4ccccc4)C(F)(F)C(F)(F)F)CC3)CC2)nc1Cl (single isomer, unassigned) | 30

The compound listed as O=C(c1ccc(N2CCC(C3CCN(C(=O)[C@](O)(c4ccccc4)C(F)(F)F)CC3)CC2)cc1Cl)N1CCCC2(CC2)C1 has a reported EC50 of 216

Reported EC50 for CC1CCCN(C(=O)c2ccc(N3CCC(C4CCN(C(=O)[C@](O)(c5ccccc5)C(F)(F)F)CC4)CC3)cc2Cl)C1 (stereo partly drawn) was 276

Recorded EC50 (compound CC(C)[C@@](O)(C(=O)N1CCC(C2CCN(c3ccc(C(=O)N(C)C)c(Cl)c3)CC2)CC1)C(F)(F)F (single isomer, unassigned) ): 35
